All values here come from patent US20180244653A1.

# targetEntity: α4β2-nAChRs (Homo sapiens, UniProt P17787+P43681)
# Construct: expressed in transfected cells; host or cells: HEKtsA201 cells co-expressing TN-XXL
# Sequence (P43681 29-627 limits assumed): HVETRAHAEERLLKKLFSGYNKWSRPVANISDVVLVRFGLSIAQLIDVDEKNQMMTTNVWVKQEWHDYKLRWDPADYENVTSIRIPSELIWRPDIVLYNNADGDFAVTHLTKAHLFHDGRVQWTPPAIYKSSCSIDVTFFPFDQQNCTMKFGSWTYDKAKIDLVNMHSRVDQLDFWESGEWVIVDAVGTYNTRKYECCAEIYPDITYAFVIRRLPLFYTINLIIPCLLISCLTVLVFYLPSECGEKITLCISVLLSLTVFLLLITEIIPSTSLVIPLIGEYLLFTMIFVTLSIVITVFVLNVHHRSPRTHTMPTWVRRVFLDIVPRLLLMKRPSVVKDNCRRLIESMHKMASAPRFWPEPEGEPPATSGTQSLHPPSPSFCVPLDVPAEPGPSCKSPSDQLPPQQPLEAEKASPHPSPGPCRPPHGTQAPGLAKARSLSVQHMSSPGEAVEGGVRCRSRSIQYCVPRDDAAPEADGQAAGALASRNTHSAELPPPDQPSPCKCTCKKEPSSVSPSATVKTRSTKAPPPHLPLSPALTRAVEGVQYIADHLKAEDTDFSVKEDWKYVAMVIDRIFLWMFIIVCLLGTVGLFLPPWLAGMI
# Sequence (P17787 26-502): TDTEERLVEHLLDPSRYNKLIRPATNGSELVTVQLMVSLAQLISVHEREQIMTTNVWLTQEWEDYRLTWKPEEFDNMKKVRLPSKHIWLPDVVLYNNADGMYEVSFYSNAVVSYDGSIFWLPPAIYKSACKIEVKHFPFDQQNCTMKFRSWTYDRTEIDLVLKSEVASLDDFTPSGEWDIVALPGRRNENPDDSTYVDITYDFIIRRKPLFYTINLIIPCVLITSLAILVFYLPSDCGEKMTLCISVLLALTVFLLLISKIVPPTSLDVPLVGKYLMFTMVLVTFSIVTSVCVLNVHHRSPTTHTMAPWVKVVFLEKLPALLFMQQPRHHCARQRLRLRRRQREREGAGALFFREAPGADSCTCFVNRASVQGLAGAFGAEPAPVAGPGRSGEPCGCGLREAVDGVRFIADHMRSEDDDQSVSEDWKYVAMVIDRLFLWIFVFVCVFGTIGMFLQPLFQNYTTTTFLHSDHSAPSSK
# assayDetails: FRET functional assay (agonist/antagonist) using LGIC-CNiFERs
# Type: cell-based
# experimentalParameters: read-out: Antagonist KA ± SD, α4β2, non-competitive
testReadout: pKd
One number for each entry, as −log10 of the molar value.

# per-item lookup of pKd; items listed below
1. Cn1ccc2cc(-c3cn(C4CN5CCC4CC5)nn3)ccc21 (stereo not shown) [QND9]
2. COc1ccc2cc(-c3cn(C4CN5CCC4CC5)nn3)ccc2c1 (stereo not shown) [QND6]
3. COC(=O)c1ccc2[nH]cc(-c3cn(C4CN5CCC4CC5)nn3)c2c1 (stereo not shown) [QND11]
4. CN1[C@@H]2CCC[C@H]1CC(n1cc(-c3ccc4[nH]ccc4c3)nn1)C2 (stereo partly shown) [IND7]

[5.19, 5.21, 4.43, 4.65]

###

# targetEntity: 5HT3A receptors (Mus musculus, UniProt P23979)
# Construct: expressed in transfected cells; host or cells: HEK293 cells co-expressing TN-XXL
# assayDetails: FRET functional assay (agonist/antagonist) using LGIC-CNiFERs
# Format: cell-based
# experimentalParameters: functional screening and characterization
testReadout: Functional properties at 5HT3A receptors (agonist / antagonist, type)

c1ccc2c(-c3cn(CCN4CCCCC4)nn3)c[nH]c2c1 : competitive antagonist
Nc1ccc(-c2cn(CCN3CCCCC3)nn2)cc1 : competitive antagonist
Clc1ccc(-c2cn(C3CN4CCC3CC4)nn2)cc1 (centres unmarked) : 5HT3A receptor agonist properties
COC(=O)c1cc(-c2cn(CCN3CCCCC3)nn2)ccc1N : competitive antagonist
COC(=O)c1cc(-c2cn(CCN3CCCCC3)nn2)ccc1O : competitive antagonist

# per-item lookup of Functional properties at 5HT3A receptors (agonist / antagonist, type); items listed below
1. COc1ccc(-c2cn(C3CN4CCC3CC4)nn2)cc1 (centres unmarked)
2. Nc1ccc(-c2cn(C3CN4CCC3CC4)nn2)cc1 (centres unmarked)

["5HT3A receptor agonist properties", "5HT3A receptor agonist properties"]

###

# targetEntity: α4β2-nAChRs (Homo sapiens, UniProt P17787+P43681)
# Construct: expressed in transfected cells; host or cells: HEKtsA201 cells co-expressing TN-XXL
# assayDetails: FRET functional assay (agonist/antagonist) using LGIC-CNiFERs
# Assay type: cell-based
# experimentalParameters: functional screening and characterization
testReadout: Functional properties at α4β2-nAChRs (agonist / antagonist, type)

COC(=O)c1cc(-c2cn(C3CN4CCC3CC4)nn2)ccc1N (stereo not shown) : competitive antagonism
Oc1ccc(-c2cn(C3CN4CCC3CC4)nn2)cc1 (stereo not shown) : competitive antagonism

###

# targetEntity: α7-nAChRs (Homo sapiens, UniProt P36544)
# Construct: expressed in transfected cells; host or cells: HEKtsA201 cells co-expressing TN-XXL
# Sequence (P36544 23-502): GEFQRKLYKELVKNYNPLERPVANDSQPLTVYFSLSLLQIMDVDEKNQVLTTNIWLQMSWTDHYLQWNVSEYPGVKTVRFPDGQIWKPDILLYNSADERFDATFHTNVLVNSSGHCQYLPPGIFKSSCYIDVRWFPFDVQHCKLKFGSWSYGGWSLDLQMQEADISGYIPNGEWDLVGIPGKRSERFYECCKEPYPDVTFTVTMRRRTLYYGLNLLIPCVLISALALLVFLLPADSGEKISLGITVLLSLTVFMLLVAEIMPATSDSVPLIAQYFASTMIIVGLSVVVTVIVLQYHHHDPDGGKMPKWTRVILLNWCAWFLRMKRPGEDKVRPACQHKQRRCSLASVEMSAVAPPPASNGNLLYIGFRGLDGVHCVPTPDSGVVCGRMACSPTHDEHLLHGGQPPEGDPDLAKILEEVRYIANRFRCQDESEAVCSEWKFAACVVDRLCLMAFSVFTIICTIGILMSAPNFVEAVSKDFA
# assayDetails: FRET functional assay (agonist/antagonist) using LGIC-CNiFERs
# Format: cell-based
# experimentalParameters: in presence of 10 μM PNU-120596; * partial agonist; >10 = did not pass initial screen; read-out: Agonist EC50 ± SD, α7
pEC50: −log10 of the molar value.
Label Not met if pEC50 falls below 6; label Met in every other case.

Before answering, review these 5 worked examples.
CN1CCCC(n2cc(-c3ccc4[nH]ccc4c3)nn2)C1 (stereo not drawn) [IND11] : Not met
Cc1ccc(-c2cn(CCN3CCCCC3)nn2)cc1 [PPRD4] : Not met
COC(=O)c1cc(-c2cn(CCN3CCCCC3)nn2)ccc1O [PPRD14] : Not met
O=Cc1c[nH]c2ccc(-c3cn(C4CN5CCC4CC5)nn3)cc12 (stereo not drawn) [QND5] : Met
c1cc2cc(-c3cn(CCCCN4CCOCC4)nn3)ccc2[nH]1 [IND6] : Not met

Check this compound for pEC50 at or above 6: Cn1ccc2cc(-c3cn(CCN4CCCCC4)nn3)ccc21 [PPRD9]
Not met

Check this compound for pEC50 at or above 6: c1cc2c(cc1-c1cn(CCN3CCCCC3)nn1)OCO2 [PPRD1]
Not met

Check this compound for pEC50 at or above 6: Nc1ccc(-c2cn(C3CN4CCC3CC4)nn2)cc1 (stereo not drawn) [QND2]
Met

Check this compound for pEC50 at or above 6: c1cc2cc(-c3cn(CCCN4CCCCC4)nn3)ccc2[nH]1 [IND2]
Not met

Check this compound for pEC50 at or above 6: c1cc2cc(-c3cn(CCN4CCCC4)nn3)ccc2[nH]1 [IND13]
Not met

Check this compound for pEC50 at or above 6: COC(=O)c1ccc2[nH]cc(-c3cn(C4CN5CCC4CC5)nn3)c2c1 (stereo not drawn) [QND11]
Not met

Check this compound for pEC50 at or above 6: COc1ccc(-c2cn(CCN3CCCCC3)nn2)cc1 [PPRD3]
Not met

Check this compound for pEC50 at or above 6: c1ccc(-c2ccc(-c3cn(CCN4CCCCC4)nn3)cc2)cc1 [PPRD7]
Not met

Check this compound for pEC50 at or above 6: Nc1ccc(-c2cn(CCN3CCCCC3)nn2)cc1 [PPRD8]
Not met

Check this compound for pEC50 at or above 6: Clc1ccc(-c2cn(CCN3CCCCC3)nn2)cc1 [PPRD13]
Not met

Check this compound for pEC50 at or above 6: COc1ccc2cc(-c3cn(C4CN5CCC4CC5)nn3)ccc2c1 (stereo not drawn) [QND6]
Not met

Check this compound for pEC50 at or above 6: c1ccc2c(-c3cn(C4CN5CCC4CC5)nn3)c[nH]c2c1 (stereo not drawn) [QND12]
Met

Check this compound for pEC50 at or above 6: Nc1ncnc2c1ncn2Cc1cn(CCN2CCCCC2)nn1 [PPRD10]
Not met

###

# targetEntity: 5HT3A receptors (Mus musculus)
# Construct: expressed in transfected cells; host or cells: HEK293 cells co-expressing TN-XXL
# assayDetails: FRET functional assay (agonist/antagonist) using LGIC-CNiFERs
# Assay type: cell-based
# experimentalParameters: functional screening and characterization
# Protocol: Initially, the agonist properties of tested compounds were assessed directly. […] Agonist and antagonist elicited responses were characterized using the above CNiFER cell expressing Cys-loop ligand-gated ion channel (LGIC) receptors. […] Basal fluorescence was recorded for 30 s, followed by addition of 50 μL of ligand (first addition). […]
testReadout: Functional properties at 5HT3A receptors (agonist / antagonist, type)

Oc1ccc(-c2cn(C3CN4CCC3CC4)nn2)cc1 (stereo not shown) : 5HT3A receptor agonist properties

Then there is this compound:
# get_value(readout='Functional properties at 5HT3A receptors (agonist / antagonist, type)', item= COC(=O)c1cc(-c2cn(C3CN4CCC3CC4)nn2)ccc1N (stereo not shown) )
5HT3A receptor agonist properties

###

# targetEntity: α7-nAChRs (Homo sapiens)
# Construct: expressed in transfected cells; host or cells: HEKtsA201 cells co-expressing TN-XXL
# assayDetails: FRET functional assay (agonist/antagonist) using LGIC-CNiFERs
# Type: cell-based
# experimentalParameters: Antagonist KA ± SD, α7, competitive antagonist (^C); >10 = did not pass initial screen; vs (±)-epibatidine
testReadout: Kd (µM)
One number for each entry, in µM.

Query the reported Kd for α7-nAChRs (Homo sapiens); item: c1ccc(-c2ccc(-c3cn(C4CN5CCC4CC5)nn3)cc2)cc1 (stereo not shown) [QND7]
6.7

###

# targetEntity: α7-nAChRs (Homo sapiens, UniProt P36544)
# Construct: expressed in transfected cells; host or cells: HEKtsA201 cells co-expressing TN-XXL
# assayDetails: FRET functional assay (agonist/antagonist) using LGIC-CNiFERs
# Assay type: cell-based
# experimentalParameters: non-competitive antagonist (^NC); read-out: Antagonist KA ± SD, α7, non-competitive
testReadout: Kd

COC(=O)c1ccc2[nH]cc(-c3cn(CCN4CCCCC4)nn3)c2c1 [PPRD11] : 6.6 µM

# per-item lookup of Kd; items listed below
1. Nc1ncnc2c1ncn2Cc1cn(CCN2CCCCC2)nn1 [PPRD10]
2. c1ccc(-c2ccc(-c3cn(C4CN5CCC4CC5)nn3)cc2)cc1 (stereo not drawn) [QND7]

["18.9 µM", "26 µM"]

###

# targetEntity: 5HT3A receptors (Mus musculus)
# Construct: expressed in transfected cells; host or cells: HEK293 cells co-expressing TN-XXL
# Sequence (P23979 24-489): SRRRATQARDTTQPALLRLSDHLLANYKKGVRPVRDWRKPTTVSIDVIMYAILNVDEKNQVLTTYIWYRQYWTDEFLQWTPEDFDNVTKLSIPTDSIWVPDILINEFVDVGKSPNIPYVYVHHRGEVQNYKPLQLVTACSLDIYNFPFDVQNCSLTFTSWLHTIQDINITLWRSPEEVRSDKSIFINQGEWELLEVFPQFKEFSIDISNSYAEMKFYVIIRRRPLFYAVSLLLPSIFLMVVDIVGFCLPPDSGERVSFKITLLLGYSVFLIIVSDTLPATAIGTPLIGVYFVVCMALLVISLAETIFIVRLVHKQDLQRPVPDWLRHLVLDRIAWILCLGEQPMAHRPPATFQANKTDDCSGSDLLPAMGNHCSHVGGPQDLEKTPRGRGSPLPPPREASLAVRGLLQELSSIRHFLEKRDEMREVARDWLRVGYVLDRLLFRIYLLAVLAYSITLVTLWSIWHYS
# assayDetails: FRET functional assay (agonist/antagonist) using LGIC-CNiFERs
# Format: cell-based
testReadout: pEC50
Give bare numbers, as −log10 of the molar value.

# get_value(readout='pEC50', item= COc1ccc(-c2cn(C3CN4CCC3CC4)nn2)cc1 (stereo not shown) )
5.24
